- TARGET OR SYSTEM: cynomolgus LIV-1 (cynomolgus, UniProt A0A2K5WH46 30-741)
- Sequence (A0A2K5WH46 entry or part of it): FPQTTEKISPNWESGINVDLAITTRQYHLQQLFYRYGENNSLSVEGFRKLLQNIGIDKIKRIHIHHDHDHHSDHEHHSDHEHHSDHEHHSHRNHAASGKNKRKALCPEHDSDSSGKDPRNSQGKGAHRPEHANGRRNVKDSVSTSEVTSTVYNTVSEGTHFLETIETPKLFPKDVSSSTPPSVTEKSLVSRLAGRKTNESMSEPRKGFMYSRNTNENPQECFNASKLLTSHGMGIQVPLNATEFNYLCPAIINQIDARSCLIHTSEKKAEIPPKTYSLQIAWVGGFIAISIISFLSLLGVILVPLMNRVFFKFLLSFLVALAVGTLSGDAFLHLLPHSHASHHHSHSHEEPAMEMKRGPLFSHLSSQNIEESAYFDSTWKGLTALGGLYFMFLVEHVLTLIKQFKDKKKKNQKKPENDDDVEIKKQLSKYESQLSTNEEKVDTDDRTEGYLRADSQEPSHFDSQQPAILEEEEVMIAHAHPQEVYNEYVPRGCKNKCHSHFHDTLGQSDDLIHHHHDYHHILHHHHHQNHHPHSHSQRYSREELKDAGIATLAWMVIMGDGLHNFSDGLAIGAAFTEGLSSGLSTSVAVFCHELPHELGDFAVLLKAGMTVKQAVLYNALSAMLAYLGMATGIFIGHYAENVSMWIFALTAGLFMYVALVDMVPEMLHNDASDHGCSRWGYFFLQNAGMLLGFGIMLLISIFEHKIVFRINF
- MEASUREMENT DESCRIPTION: FACS, HEK293/Cyno_LIV-1 cells
Listed below: Top (MFI) values for each entry.
Reply with just the number (in MFI).

binder="5D6B10.Z9 (antibody, V domains shown) VH: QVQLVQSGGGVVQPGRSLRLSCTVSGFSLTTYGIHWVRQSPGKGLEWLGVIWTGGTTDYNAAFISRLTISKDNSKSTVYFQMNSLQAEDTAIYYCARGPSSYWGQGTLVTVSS VL: DIVMTQSPATLSVSPGERVTVSCKASQNVDTNVVWYQQKPGQSPRALIHSASYRYSGVPDRFSGSGSGTDFTLTISSVQSEDFAVYFCQQYNNYPWTFGGGTKLEIK" property_measured="Top (MFI)" unit_of_measurement=MFI test_result=16500
binder="5D6B10.Z1 (antibody, V domains shown) VH: QVQLVESGGGVVQPGRSLRLSCAVSGFSLTTYGIHWVRQAPGKGLEWLAVIWTGGTTDYNAAFISRFTISKDNSKSTLYLQMNSLRAEDTAVYYCARGPSSYWGQGTLVTVSS VL: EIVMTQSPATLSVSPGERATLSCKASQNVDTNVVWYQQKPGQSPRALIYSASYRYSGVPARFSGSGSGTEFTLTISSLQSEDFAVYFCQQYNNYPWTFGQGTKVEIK" property_measured="Top (MFI)" unit_of_measurement=MFI test_result=19600

Top (MFI) in this record for 124H4D11.p2.z14 (antibody, V domains shown) VH: QVPLVQSGAEVVKPGASVKLSCKASGFNIKDYYMHWVKQAPGQGLEWIGWIDPENDDTEYDPKFQGRATMTADTSTSTAYLELSSLRSEDTAVYYCNARYYAFDYWGQGTTVTVSS VL: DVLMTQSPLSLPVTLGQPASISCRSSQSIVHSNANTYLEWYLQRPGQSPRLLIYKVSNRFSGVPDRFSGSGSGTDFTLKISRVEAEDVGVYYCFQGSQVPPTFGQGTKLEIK : 7670
